test system: human sensory panel (sweet, bitter or astringent taste); assay: Sensory testing in model bases (human sensory panel, 20 trained panelists); type: in vivo; details: 10 ppm; scale of −5 (strong masking effect) to 5 (strong enhancing effect); 0 = reference water solution containing 4% sucrose or 10 ppm mixture of Limonin, Naringin and Nomilin
Outcome: Yes for Bitterness of at least -2; No for anything lower.

In [3]: df
Out[3]:
                                   compound  class_label
0  COc1ccc(-c2cc(=O)c3c(O)c(OC)c(O)c(OC)c3o2)cc1 [Compound 101, 5,7-dihydroxy-6,8,4′-trimethoxyflavone]          Yes
1  O=c1cc(-c2ccc(O)cc2)oc2cc(O)c(O)c(O)c12 [Compound 103, 5,6,7,4′-tetrahydroxyflavone]          Yes
2  COc1ccc(-c2oc3cc(OC)c(OC)c(O)c3c(=O)c2OC)cc1O          Yes
3  COc1cc(O)cc2c1C(=O)CC(c1ccccc1)O2 (centres unmarked) [Compound 107, 5-methoxy-7-hydroxyflavanone]           No

Request: Please check the record COc1c(O)cc2oc(-c3ccccc3)cc(=O)c2c1O [Compound 104, 5,7-dihydroxy-6-methoxyflavone] and state if its Bitterness is at or above -2.
Response: Yes

* * *

tested on: human sensory panel (bitter and astringent taste); test: Sensory testing in applications (human sensory panel, 8 experts); type: in vivo; conditions: 10 ppm in smart protein beverage; scale of −5 (strong masking) to 5 (strong enhancing); 0 = reference application
Items are presented alongside their recorded Smart Protein Beverage Off-flavor.
Response field accepts a number only; no unit should be typed.

# annotated cases, reported Smart Protein Beverage Off-flavor shown
In [3]: df
Out[3]:
                                   compound                                    system                    outcome_measure  readout_value
0  COc1ccc(-c2cc(=O)c3c(O)c(OC)c(O)c(OC)c3o2)cc1 [Compound 101, 5,7-dihydroxy-6,8,4′-trimethoxyflavone]  human sensory panel (bitter and astringent taste)  Smart Protein Beverage Off-flavor           −0.1
1  COc1ccc(-c2oc3cc(OC)c(OC)c(O)c3c(=O)c2OC)cc1O  human sensory panel (bitter and astringent taste)  Smart Protein Beverage Off-flavor          −0.33
2  O=c1cc(-c2ccc(O)cc2)oc2cc(O)c(O)c(O)c12 [Compound 103, 5,6,7,4′-tetrahydroxyflavone]  human sensory panel (bitter and astringent taste)  Smart Protein Beverage Off-flavor          −0.50

For this compound ( COc1ccc(-c2cc(=O)c3c(O)c(OC)c(O)cc3o2)cc1OC [Compound 105, 5,7-dihydroxy-6,3′,4′-trimethoxyflavone] ), measured Smart Protein Beverage Off-flavor is −0.80

* * *

tested on: human sensory panel (bitter and astringent taste); test: Sensory testing in applications (human sensory panel, 8 experts); type: in vivo; conditions: 10 ppm in smart protein beverage; scale of −5 (strong masking) to 5 (strong enhancing); 0 = reference application
outcome measure: Smart Protein Beverage Bitter
Response field accepts a number only; no unit should be typed.

# annotated cases, reported Smart Protein Beverage Bitter shown
>>> print(df.to_string())
                                   compound                                    system                outcome_measure  readout_value
0  COc1ccc(-c2cc(=O)c3c(O)c(OC)c(O)c(OC)c3o2)cc1 [Compound 101, 5,7-dihydroxy-6,8,4′-trimethoxyflavone]  human sensory panel (bitter and astringent taste)  Smart Protein Beverage Bitter           −0.6
1  COc1ccc(-c2oc3cc(OC)c(OC)c(O)c3c(=O)c2OC)cc1O  human sensory panel (bitter and astringent taste)  Smart Protein Beverage Bitter          −0.42
2  O=c1cc(-c2ccc(O)cc2)oc2cc(O)c(O)c(O)c12 [Compound 103, 5,6,7,4′-tetrahydroxyflavone]  human sensory panel (bitter and astringent taste)  Smart Protein Beverage Bitter           0.00

Let's switch to this compound now.
Considering COc1ccc(-c2cc(=O)c3c(O)c(OC)c(O)cc3o2)cc1OC [Compound 105, 5,7-dihydroxy-6,3′,4′-trimethoxyflavone] , its Smart Protein Beverage Bitter with human sensory panel (bitter and astringent taste) was recorded as −0.80
